Documented IC50 across a set of compounds
Target: hBGT1 E52Y (Homo sapiens, UniProt P48065, E52Y)
Sequence (P48065 1-614 E52Y): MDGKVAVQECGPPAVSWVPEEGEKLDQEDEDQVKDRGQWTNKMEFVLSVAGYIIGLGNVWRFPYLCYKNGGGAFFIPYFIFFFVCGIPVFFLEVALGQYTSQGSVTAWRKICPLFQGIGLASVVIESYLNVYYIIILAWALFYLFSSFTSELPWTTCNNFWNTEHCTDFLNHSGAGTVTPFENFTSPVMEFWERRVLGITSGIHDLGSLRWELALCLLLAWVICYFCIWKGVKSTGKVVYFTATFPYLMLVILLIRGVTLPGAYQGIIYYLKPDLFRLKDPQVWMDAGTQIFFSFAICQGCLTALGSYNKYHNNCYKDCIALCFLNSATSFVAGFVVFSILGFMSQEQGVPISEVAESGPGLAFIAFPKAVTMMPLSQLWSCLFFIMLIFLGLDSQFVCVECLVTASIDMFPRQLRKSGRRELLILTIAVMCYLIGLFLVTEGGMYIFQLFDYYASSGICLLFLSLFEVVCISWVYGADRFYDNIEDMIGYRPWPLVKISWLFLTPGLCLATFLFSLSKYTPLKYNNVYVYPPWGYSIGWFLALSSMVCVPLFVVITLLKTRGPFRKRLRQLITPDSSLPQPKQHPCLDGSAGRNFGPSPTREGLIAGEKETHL
Assay: cell-based
Details: IC50 BGT1 E52Y, 30 nM [3H]GABA, tsA201 cells, transient expression

| compound | unit_text | prefix_operator | IC50 |
| --- | --- | --- | --- |
| NC1=NCC(C(=O)O)CC1 (stereo not drawn) [compound 2, reference compound] | µM | = | 44 |
| Cl.NC1=NCC(C(=O)O)CN1Cc1ccccc1 (stereo not drawn) | µM | = | 54 |
| NC1=NCC(C(=O)O)CN1 (stereo not drawn) [ATPCA, reference compound] | µM | = | 5.8 |
| CCN1CC(C(=O)O)CN=C1N.Cl (stereo not drawn) | µM | = | 152 |
| C[C@@H]1N=C(N)NC[C@@H]1C(=O)O (single isomer, unassigned) [l-15a] | µM | > | 1000 |
| NC1=NC=C(C(=O)O)CN1.O=C(O)C(F)(F)F | µM | > | 1000 |
